Cited source for all entries: PubChem BioAssay AID1159580

Test: chemical genetic growth profiling, strain panel (AID 1159580);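 also: tested at 20 µM; growth read once vehicle control cultures reached saturation at 30 °C; lower values mean less growth of the strain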
Settings: S. cerevisiae deletion strains, growth OD, locus YER015W, strain faa2
The whole screen tested about 5,500 compounds, of which about 2,000 (36%) were called active. Another 18% or so got no clear call; they are omitted. Rule as the data show it: active = normalized growth mostly below about 0.91 (no sharp cut-off); inconclusive = no clear call, values can overlap the other calls; inactive = mostly above about 0.92. The list shows a part of the results.
Choose the fitting class; nothing outside active, inactive is accepted.

Sample answers from the record:
- MOLECULE: "COc1c(O)cc2c(c1O)[C@H]1O[C@H](CO)[C@@H](O)[C@H](O)[C@@H]1OC2=O"
  ASSIGNED_CATEGORY: "inactive"
- MOLECULE: "CN(C)CC[C@H](c1ccc(Cl)cc1)c1ccccn1"
  ASSIGNED_CATEGORY: "inactive"

Query string: Record lookup: outcome of this test for CC1(C)C(O)CC(=O)C2(C)C1CC(O)C1(C)C2CCC2(C)C(c3ccoc3)OC(=O)C3OC321 (centres undefined) ?
Result string: inactive

Query string: Which outcome was entered for the molecule CC1Cc2ccccc2N1NC(=O)c1ccc(Cl)c(S(N)(=O)=O)c1 (centres undefined) in this test?
Result string: inactive

Query string: Check the results log: what was the call for O=S(=O)(O)O ?
Result string: inactive
